Hey, just so you know, these numbers are from patent US6861391B1.

What melting point was measured for each of the following?

QUERY: Return value of melting point for input Cc1ccc(Br)c(C2=C(O)C3(CCC(C(F)(F)F)CC3)NC2=O)c1 (centres unmarked) [Example I-1-a-7] , no commentary.
RESULT: 212 °C

QUERY: Annotate the molecule Cc1cc(C)c(C2=C(O)C3(CCC(C(F)(F)F)CC3)NC2=O)c(C)c1C (centres unmarked) [Example I-1-a-5] with its measured melting point.
RESULT: > 250 °C

QUERY: Indicate the recorded melting point value for this molecule: Cc1cc(Cl)c(C2=C(O)C3(CCC(C(F)(F)F)CC3)NC2=O)c(Cl)c1 (centres unmarked) [Example I-1-a-4]
RESULT: > 250 °C

QUERY: Return melting point for the following molecule: Cc1cc(C)c(C2=C(O)C3(CCC(C(F)(F)F)CC3)OC2=O)c(C)c1C (centres unmarked) [Example I-2-a-3]
RESULT: 159 to 161 °C

QUERY: Annotate the molecule Cc1ccc(C)c(C2=C(O)C3(CCC(C(F)(F)F)CC3)NC2=O)c1 (centres unmarked) [Example I-1-a-2] with its measured melting point.
RESULT: 245 °C

QUERY: Provide melting point value for the following molecule: Cc1cc(C)c(C2=C(O)C3(CCC(C(F)(F)F)CC3)OC2=O)cc1C (centres unmarked) [Example I-2-a-2]
RESULT: 212 to 214 °C

QUERY: Identify measured melting point corresponding to Cc1cc(C)c(C2=C(O)C3(CCC(C(F)(F)F)CC3)NC2=O)cc1C (centres unmarked) [Example I-1-a-3]
RESULT: 175 °C

QUERY: Please supply the value of reported melting point for the item Cc1cc(Cl)cc(C)c1C1=C(O)C2(CCC(C(F)(F)F)CC2)NC1=O (centres unmarked) [Example I-1-a-6]
RESULT: > 248 °C
